Parameter Cyp450 inhibition: CDNA-CYP2C19-CEC (% inhibition): see the listing below.
target: CYP2C19 (Homo sapiens); assay: CYP450 inhibition CDNA-CYP2C19-CEC; details: 10 μM test compound, substrate CEC 25 μM, 30 min
Sequence (P33261 whole entry): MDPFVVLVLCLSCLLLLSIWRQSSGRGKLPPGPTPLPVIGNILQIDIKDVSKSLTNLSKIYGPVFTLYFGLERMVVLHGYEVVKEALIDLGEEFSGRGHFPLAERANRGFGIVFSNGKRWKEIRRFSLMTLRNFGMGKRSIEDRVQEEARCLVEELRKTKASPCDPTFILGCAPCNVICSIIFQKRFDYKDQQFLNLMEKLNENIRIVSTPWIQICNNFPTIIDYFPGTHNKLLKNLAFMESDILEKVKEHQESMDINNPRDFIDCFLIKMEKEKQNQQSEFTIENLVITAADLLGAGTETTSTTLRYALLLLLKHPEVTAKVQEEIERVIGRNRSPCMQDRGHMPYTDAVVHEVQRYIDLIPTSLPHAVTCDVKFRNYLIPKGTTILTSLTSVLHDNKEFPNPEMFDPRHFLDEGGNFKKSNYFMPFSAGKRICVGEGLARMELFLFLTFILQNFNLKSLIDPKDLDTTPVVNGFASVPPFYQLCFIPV
Write your answer as a measured quantity: the number, then the unit.

Field: example entries. Status: answers known.
STRUCTURE STRING | RESULT
CCNc1nc2ccc(C(=O)N(CC(C)C)C[C@@H](O)[C@H](Cc3ccccc3)NC(=O)OCc3cncs3)cc2o1 | 79%
CC(C)(C)CN(C[C@@H](O)[C@H](Cc1ccccc1)NC(=O)OCc1cncs1)C(=O)c1ccc2nc(N3CCCC3)oc2c1 | 92%
O=C(N[C@@H](Cc1ccccc1)[C@H](O)CN(CC1CCC(F)(F)CC1)C(=O)c1ccc2nc(N3CCCC3)oc2c1)OCc1cncs1 | 96%
O=C(N[C@@H](Cc1ccccc1)[C@H](O)CN(CCN1CCOCC1)C(=O)c1ccc2nc(N3CCCC3)oc2c1)OCc1cncs1 | 65%

Fill in Cyp450 inhibition: CDNA-CYP2C19-CEC (% inhibition) for record CN(C)CCN(C[C@@H](O)[C@H](Cc1ccccc1)NC(=O)OCc1cncs1)C(=O)c1ccc2nc(N3CCCC3)oc2c1
46%

Fill in Cyp450 inhibition: CDNA-CYP2C19-CEC (% inhibition) for record O=C(N[C@@H](Cc1ccccc1)[C@H](O)CN(CCN1CCCC1)C(=O)c1ccc2nc(N3CCCC3)oc2c1)OCc1cncs1
46%

Fill in Cyp450 inhibition: CDNA-CYP2C19-CEC (% inhibition) for record CC(C)CN(C[C@@H](O)[C@H](Cc1ccccc1)NC(=O)OCc1cncs1)C(=O)c1ccc2nc(-c3ccncc3)oc2c1
94%

Fill in Cyp450 inhibition: CDNA-CYP2C19-CEC (% inhibition) for record CCNc1nc2ccc(C(=O)N(C[C@@H](O)[C@H](Cc3ccccc3)NC(=O)OCc3cncs3)CC(C)(C)O)cc2o1
62%
